Value source: ChEMBL document CHEMBL3988442

Task for the reader: assign each of the following molecules its reported Percent Effect.
# target_under_test: Tyrosyl-tRNA synthetase, putative (Trypanosoma cruzi (strain CL Brener)) (UniProt Q4DSP6)
# Sequence (whole entry): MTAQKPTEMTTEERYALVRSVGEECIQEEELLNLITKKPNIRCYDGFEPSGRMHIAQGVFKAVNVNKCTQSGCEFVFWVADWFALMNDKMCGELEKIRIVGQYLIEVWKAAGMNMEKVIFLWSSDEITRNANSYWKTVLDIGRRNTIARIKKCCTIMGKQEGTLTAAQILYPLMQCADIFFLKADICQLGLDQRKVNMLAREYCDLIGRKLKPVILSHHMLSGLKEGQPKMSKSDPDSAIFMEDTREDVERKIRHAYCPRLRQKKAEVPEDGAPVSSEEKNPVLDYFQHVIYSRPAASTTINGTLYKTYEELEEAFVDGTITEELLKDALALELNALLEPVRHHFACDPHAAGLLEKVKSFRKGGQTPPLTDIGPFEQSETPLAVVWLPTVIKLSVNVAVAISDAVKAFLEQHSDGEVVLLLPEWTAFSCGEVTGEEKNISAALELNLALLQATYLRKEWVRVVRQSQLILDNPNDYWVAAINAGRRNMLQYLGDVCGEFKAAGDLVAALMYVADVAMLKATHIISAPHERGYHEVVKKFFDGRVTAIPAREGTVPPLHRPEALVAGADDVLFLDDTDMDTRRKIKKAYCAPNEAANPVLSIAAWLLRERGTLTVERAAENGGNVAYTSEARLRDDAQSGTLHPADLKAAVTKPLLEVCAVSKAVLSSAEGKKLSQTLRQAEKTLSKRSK
# method_notes: Trypanosoma cruzi tyrosyl tRNA synthetase (TcYRS) SOP
# Assay type: functional
# Set-up: scale not given: direction of the effect not stated beside the values
# assay_conditions: 30 µM
Give bare numbers, in %.

Some molecules with recorded Percent Effect:
CC(C)CC(CNC(=O)NCc1cc[nH]n1)N1CCOCC1 (stereo not drawn); 20.5
CCC(NC(=O)C1CCN(S(=O)(=O)N(C)C)CC1)c1ccc(C)c(C)c1 (stereo not drawn); 1.24
O=C1CC(c2ccccc2)c2c(n3ccsc3nc2=O)N1 (stereo not drawn); 15.4
CS(=O)(=O)NC1CCCN(C(=O)NCc2cc[nH]n2)C1 (stereo not drawn); 21.2
O=C(c1cnc(COc2ccccc2)nc1O)N1CCOCC1; 2.56
COc1cc(S(=O)(=O)N2CCCc3ccccc32)cc(C(=O)O)c1OC; 7.69

Required: Percent Effect, one value per molecule below.
1. Cc1cc(C)n(C2CCCN(C(=O)c3ccc(F)cc3F)C2)n1 (stereo not drawn)
2. CS(=O)(=O)NCC1CCCN(C(=O)Nc2ccccc2Cl)C1 (stereo not drawn)

1: 6.1; 2: 18.2

====

Task for the reader: assign each of the following molecules its reported Percent Effect.
# target_under_test: Chromo domain-containing protein 1 (Saccharomyces cerevisiae (strain ATCC 204508 / S288c) (Baker's yeast)) (UniProt P32657)
# Sequence (P32657 whole entry, the tested form may be a part): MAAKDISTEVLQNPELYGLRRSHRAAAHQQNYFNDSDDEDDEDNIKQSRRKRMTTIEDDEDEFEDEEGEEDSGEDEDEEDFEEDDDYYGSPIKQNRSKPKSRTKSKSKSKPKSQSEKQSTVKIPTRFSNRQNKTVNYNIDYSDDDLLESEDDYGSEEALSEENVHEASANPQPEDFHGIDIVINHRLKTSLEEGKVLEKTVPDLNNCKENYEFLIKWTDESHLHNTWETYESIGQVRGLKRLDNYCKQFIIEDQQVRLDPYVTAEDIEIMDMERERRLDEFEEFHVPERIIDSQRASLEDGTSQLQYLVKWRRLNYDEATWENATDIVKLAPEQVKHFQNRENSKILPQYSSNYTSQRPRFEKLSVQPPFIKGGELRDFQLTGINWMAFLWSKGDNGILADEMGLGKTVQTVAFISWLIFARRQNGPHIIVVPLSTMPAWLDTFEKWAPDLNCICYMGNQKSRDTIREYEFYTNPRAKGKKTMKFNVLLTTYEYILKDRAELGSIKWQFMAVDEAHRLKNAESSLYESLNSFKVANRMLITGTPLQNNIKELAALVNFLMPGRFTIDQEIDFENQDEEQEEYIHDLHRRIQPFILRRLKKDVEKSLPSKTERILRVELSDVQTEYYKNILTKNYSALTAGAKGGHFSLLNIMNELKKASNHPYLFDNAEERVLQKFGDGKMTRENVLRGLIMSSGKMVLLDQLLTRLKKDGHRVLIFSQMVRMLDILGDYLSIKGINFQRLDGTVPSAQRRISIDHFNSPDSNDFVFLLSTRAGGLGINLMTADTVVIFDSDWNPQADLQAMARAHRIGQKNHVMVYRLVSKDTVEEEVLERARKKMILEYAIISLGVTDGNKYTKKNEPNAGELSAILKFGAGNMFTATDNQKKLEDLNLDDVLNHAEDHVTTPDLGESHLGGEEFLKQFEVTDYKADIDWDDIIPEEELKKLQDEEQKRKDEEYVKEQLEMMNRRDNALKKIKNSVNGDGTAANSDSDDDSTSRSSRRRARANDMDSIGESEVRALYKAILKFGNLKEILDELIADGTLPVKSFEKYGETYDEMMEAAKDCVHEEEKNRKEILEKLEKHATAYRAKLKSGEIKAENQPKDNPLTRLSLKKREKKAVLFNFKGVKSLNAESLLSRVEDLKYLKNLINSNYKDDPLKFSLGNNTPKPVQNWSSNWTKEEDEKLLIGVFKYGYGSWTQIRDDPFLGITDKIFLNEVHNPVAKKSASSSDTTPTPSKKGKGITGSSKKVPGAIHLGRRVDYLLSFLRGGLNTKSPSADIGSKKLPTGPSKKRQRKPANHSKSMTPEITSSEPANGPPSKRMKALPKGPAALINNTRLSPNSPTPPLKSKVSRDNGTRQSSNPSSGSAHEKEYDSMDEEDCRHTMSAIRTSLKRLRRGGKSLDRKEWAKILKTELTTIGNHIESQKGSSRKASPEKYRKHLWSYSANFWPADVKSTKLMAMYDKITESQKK
# method_notes: ScCHD-1 Enzyme Inhibition Assay; also: in the data most compounds retested in dose-response had high values
# Type: functional
# Design: scale not given: direction of the effect not stated beside the values
# assay_conditions: 30 µM
Numbers only, in %.

Some molecules with recorded Percent Effect:
CN(CCC(F)(F)F)C(=O)[C@H]1CSCN1C(=O)OC(C)(C)C; -1.07
Cc1ncsc1C(=O)NC1CCN(CCC(N)=O)CC1; -1.54
O=C(NCCCn1ccnc1)N1CCCC1c1ccncc1 (stereo unspecified); 5.86
c1ccc(Cc2noc(CNC3CCc4ncnn4C3)n2)cc1 (stereo unspecified); -5.11
O=C(C1CCOC1)N1CC[C@@H](O)[C@@H]1Cc1ccccc1 (stereo partly specified); -3.36

Consider the molecule shown here: O=S(=O)(c1cccs1)N1CCCn2cnc(CN3CCCC3)c2C1 What is its recorded Percent Effect? -7.45
